Below: a set of entries, each annotated with reported pIC50.
# ASSAY NAME: Inhibition of (2S,8S,11S,14S)-2-(4-aminobutyl)-14-(3-guanidinopropyl)-8-(4-hydroxybenzyl)-11-(hydroxymethyl)-4,7,10,13,16,32-hexaoxo-36-((3aS,4S,6aR)-2-oxohexahydro-1H-thieno[3,4-d]imidazol-4-yl)-19,22,25,28-tetraoxa-3,6,9,12,15,31-hexaazahexatriacontan-1-oic acid binding to human Hsp72 SBD expressed in Escherichia coli BL21 (DE3) by Western
pIC50: −log10 of the molar value. Peptide text beside a SMILES is read from it.
EXPERIMENTAL READOUT: pIC50

{"MOLECULE": "C[C@H](NC(=O)[C@H](CCCCN)NC(=O)[C@H](CCCNC(=N)N)NC(=O)[C@H](CO)NC(=O)[C@H](Cc1ccc(O)cc1)NC(=O)CNC(=O)[C@@H](N)CCCCN)C(=O)O (H-KGYSRKA-OH)", "MEASUREMENT": 4.15}
{"MOLECULE": "N=C(N)NCCC[C@H](NC(=O)[C@H](CO)NC(=O)[C@H](Cc1ccc(O)cc1)NC(=O)CNC(=O)[C@@H](N)CCCCN)C(=O)O (H-KGYSR-OH)", "MEASUREMENT": 4.06}
{"MOLECULE": "N=C(N)NCCC[C@H](NC(=O)[C@H](CO)NC(=O)[C@H](Cc1ccc(O)cc1)NC(=O)CNC(=O)[C@@H](N)CCCCN)C(=O)N[C@@H](CCCCN)C(=O)O (H-KGYSRK-OH)", "MEASUREMENT": 3.61}
{"MOLECULE": "C[C@H](NC(=O)[C@H](C)NC(=O)[C@H](CCCCN)NC(=O)[C@H](CCCNC(=N)N)NC(=O)[C@H](CO)NC(=O)[C@H](Cc1ccc(O)cc1)NC(=O)CNC(=O)[C@@H](N)CCCCN)C(=O)O (H-KGYSRKAA-OH)", "MEASUREMENT": 5.19}
